# TESTED ON: Gal(b1-3)GalNAc(b1-3)Gal
# ASSAY TEXT: glycan array binding signal (z-score within array); higher = stronger binding
# EXPERIMENTAL CONDITIONS: glycan notation: IUPAC condensed, linker removed
The entries come from a sample that favours the strongest signals as a whole.

{"columns": ["BINDER", "glycan array binding signal (z-score)"],
 "data": [
  ["LTL (Lotus tetragonolobus), P19664 (protein) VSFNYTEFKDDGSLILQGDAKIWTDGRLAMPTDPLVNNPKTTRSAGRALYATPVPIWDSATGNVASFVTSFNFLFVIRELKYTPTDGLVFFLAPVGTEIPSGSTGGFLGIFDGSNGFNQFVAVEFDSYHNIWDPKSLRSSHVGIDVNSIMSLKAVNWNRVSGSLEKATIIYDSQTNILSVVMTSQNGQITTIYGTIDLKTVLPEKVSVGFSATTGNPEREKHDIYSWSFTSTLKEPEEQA", -0.295],
  ["EUL D1A (Oryza sativa) (protein) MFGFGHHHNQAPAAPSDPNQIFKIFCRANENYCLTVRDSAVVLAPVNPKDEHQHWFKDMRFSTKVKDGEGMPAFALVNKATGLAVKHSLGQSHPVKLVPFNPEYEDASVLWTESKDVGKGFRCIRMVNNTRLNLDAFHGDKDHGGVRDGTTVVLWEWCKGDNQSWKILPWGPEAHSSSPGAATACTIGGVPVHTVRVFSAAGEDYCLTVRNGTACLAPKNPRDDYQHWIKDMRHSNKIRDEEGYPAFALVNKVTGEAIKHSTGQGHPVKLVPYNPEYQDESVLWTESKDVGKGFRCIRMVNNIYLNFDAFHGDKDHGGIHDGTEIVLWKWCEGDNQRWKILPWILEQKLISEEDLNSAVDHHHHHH", -0.437],
  ["CFEM-PPm (Pichia pastoris), F2QPV1 (protein) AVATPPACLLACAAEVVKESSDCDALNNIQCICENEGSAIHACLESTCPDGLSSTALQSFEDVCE", 5.7],
  ["DC-ASGPR-short (Homo sapiens) (protein) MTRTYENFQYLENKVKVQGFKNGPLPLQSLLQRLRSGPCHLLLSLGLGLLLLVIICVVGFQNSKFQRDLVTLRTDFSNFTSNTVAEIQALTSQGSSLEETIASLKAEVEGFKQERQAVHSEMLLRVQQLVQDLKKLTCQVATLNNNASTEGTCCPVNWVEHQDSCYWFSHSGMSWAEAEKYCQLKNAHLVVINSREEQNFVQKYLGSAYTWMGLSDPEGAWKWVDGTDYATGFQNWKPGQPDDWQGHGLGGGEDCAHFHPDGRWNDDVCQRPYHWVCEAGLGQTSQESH", -0.217]
]}
